Sourced from patent US20220380347A1

- System: HCov OC43
- EXPERIMENT DESCRIPTION: HCoV OC43 cytopathic effect (CPE) assay, CellTiter Glo
- Format: cell-based, human coronavirus (HCov) OC43
- RUN PARAMETERS: read-out: OC43 IC50 (uM) MEDIAN; median; listed as 293 Isomer 1
MEASURE NAME: IC50

Ask | Endpoint output: IC50 of CO[C@H]1C[C@H](C(=O)N(c2ccc(C(C)(C)C)cc2)C(C(=O)NC2CCCCC2)c2cccnc2)N(C#N)C1 (single isomer, unassigned) [Compound 293 Isomer 1] . Value?
Reply | < 2 µM

----------
- TARGET: COVID-19 (nCoV-2019, SARS-CoV2) Mpro (Severe acute respiratory syndrome coronavirus 2, UniProt P0DTD1)
- EXPERIMENT DESCRIPTION: COVID-19 (nCoV-2019, SARS-CoV2) Mpro enzymatic assay
- Type: biochemical
- RUN PARAMETERS: 25 nM Mpro, 25 μM substrate; read-out: COVID-19 Mpro IC50
MEASURE NAME: IC50

COMPOUND	IC50
N#CN1C[C@H](O)C[C@@H]1C(=O)N(c1ccc(C2(C(F)(F)F)CC2)cc1)C(C(=O)NC1CCC(F)(F)CC1)c1cncc(F)c1 (single isomer, unassigned) [Compound 815a Isomer 2]	< 2000 nM

Respectfully, I request IC50 for each entry included below.
1. N#CN1C[C@H](F)C[C@@H]1C(=O)N(c1ccc(S(F)(F)(F)(F)F)cc1)C(C(=O)NC1CCC(F)(F)CC1)c1cncc(F)c1 (single isomer, unassigned) [Compound 1098 Isomer 2]
2. N#CN1CC(=O)NCC1C(=O)N(c1ccc(S(F)(F)(F)(F)F)cc1)C(C(=O)NC1CCC(F)(F)CC1)c1cncc(F)c1 (single isomer, unassigned) [Compound 1160 Isomer 2]
3. CO[C@@H]1C[C@H](C(=O)N(c2ccc(S(F)(F)(F)(F)F)cc2)C(C(=O)NCC(=O)N2CCCC2)c2cccnc2)N(C#N)C1 (some centres unmarked)
4. N#CN1C[C@H](O)C[C@@H]1C(=O)N(c1ccc2c(c1)NCCC2)C(C(=O)NC1CCCCC1)c1cccnc1 (single isomer, unassigned) [Compound 755 Isomer 1]
5. CC(C)(C)c1ccc(N(C(=O)[C@H]2CCCN2C#N)C(C(=O)N2CCOCC2)c2cccnc2)cc1 (single isomer, unassigned) [Compound 959 Isomer 2]
6. CO[C@@H]1C[C@H](C(=O)N(c2ccc(S(F)(F)(F)(F)F)cc2)C(C(=O)NC(C)C2CCCCN2C(=O)OC(C)(C)C)c2cccnc2)N(C#N)C1 (single isomer, unassigned) [1303 Isomer 3.1]
7. COCCCNC(=O)C(c1cccnc1)N(C(=O)[C@H]1C[C@@H](O)CN1C#N)c1ccc(C(C)(C)C)cc1 (single isomer, unassigned) [647 Isomer 2]
8. CC1(C(=O)N(c2ccc(C(C)(C)C)cc2)C(C(=O)NC2CCCCC2)c2cccnc2)CN(C#N)C1 (centres unmarked)

Reply |
1: < 2000 nM; 2: 2000 to 10000 nM; 3: < 2000 nM; 4: < 2000 nM; 5: 2000 to 10000 nM; 6: < 2000 nM; 7: < 2000 nM; 8: 10000 to 30000 nM

Hey, quick one: what's IC50 for each of these?
1. CO[C@@H]1C[C@H](C(=O)N(c2ccc(S(F)(F)(F)(F)F)cc2)C(C(=O)NC2CCC(F)(F)CC2)c2ccnnc2)N(C#N)C1 (some centres unmarked)
2. CO[C@@H]1C[C@H](C(=O)N(c2ccc(S(F)(F)(F)(F)F)cc2)C(C(=O)NC(C)C2CCCCN2C(=O)OC(C)(C)C)c2cccnc2)N(C#N)C1 (single isomer, unassigned) [1303 Isomer 2.1]

Reply |
["> 30000 nM", "2000 to 10000 nM"]

----------
- TARGET: 229E Mpro (Human coronavirus 229E, UniProt P0C6X1)
- Sequence (P0C6X1 2966-3267): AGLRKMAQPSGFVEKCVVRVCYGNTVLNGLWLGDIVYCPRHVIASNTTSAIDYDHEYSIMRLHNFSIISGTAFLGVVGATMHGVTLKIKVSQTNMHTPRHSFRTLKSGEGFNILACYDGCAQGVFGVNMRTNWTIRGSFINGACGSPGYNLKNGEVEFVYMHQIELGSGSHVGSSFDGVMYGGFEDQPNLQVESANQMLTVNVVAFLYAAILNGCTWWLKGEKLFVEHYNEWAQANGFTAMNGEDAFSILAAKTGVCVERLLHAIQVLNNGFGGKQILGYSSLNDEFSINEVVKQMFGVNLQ
- EXPERIMENT DESCRIPTION: 229E Mpro enzymatic assay (standard methods, SARS-CoV2 Mpro assay given as exemplary)
- Assay type: biochemical, human coronavirus (HCov) 229E
- RUN PARAMETERS: 229E Mpro EC50
pEC50: −log10 of the molar value.
MEASURE NAME: pEC50

Consider the following illustrative entries.
MOLECULE	TARGET	MEASURE NAME	OBSERVED MEASUREMENT
CC1(C)CCN(C#N)[C@H]1C(=O)N(c1ccc(S(F)(F)(F)(F)F)cc1)C(C(=O)NC1CCC(F)(F)CC1)c1cncc(F)c1 (single isomer, unassigned) [1094 Isomer 2]	229E Mpro (Human coronavirus 229E, UniProt P0C6X1)	pEC50	5.00 to 5.70
CC(C)(C)c1ccc(N(C(=O)[C@H]2C[C@@H](O)CN2C#N)C(C(=O)NC2CCCCC2)c2c[nH]nn2)cc1 (stereo partly drawn)	229E Mpro (Human coronavirus 229E, UniProt P0C6X1)	pEC50	> 5.70
N#CN1C[C@H](O)C[C@@H]1C(=O)N(c1ccc(S(F)(F)(F)(F)F)cc1F)C(C(=O)NC1CCC(F)(F)CC1)c1cccnc1 (single isomer, unassigned) [1288a Isomer 1]	229E Mpro (Human coronavirus 229E, UniProt P0C6X1)	pEC50	> 5.70

Batch: pEC50 for all items listed.
1. CC(C)(C)c1ccc(N(C(=O)[C@H]2CCCN2C#N)C(C(=O)N2CCOCC2)c2cccnc2)cc1 (single isomer, unassigned) [Compound 959 Isomer 2]
2. CN1CCN(C(=O)C(c2cccnc2)N(C(=O)[C@H]2CCCN2C#N)c2ccc(C(C)(C)C)cc2)CC1 (mixture of isomers)
3. CC(C)(C)c1ccc(N(C(=O)[C@H]2CCCN2C#N)C(C(=O)N2CC(=O)C2)c2cccnc2)cc1 (stereo partly drawn) [Compound 946b]

Reply |
1: > 5.70; 2: > 5.70; 3: 5.00 to 5.70

----------
- TARGET: UniProt:P0DTD1
- EXPERIMENT DESCRIPTION: COVID-19 (nCoV-2019, SARS-CoV2) Mpro enzymatic assay
- Format: biochemical
- RUN PARAMETERS: 25 nM Mpro, 25 μM substrate; read-out: COVID-19 Mpro IC50
pIC50: −log10 of the molar value.
Consider the following compounds; for each one, report its pIC50.

COMPOUND	pIC50
COCCCNC(=O)C(c1cccnc1)N(C(=O)[C@H]1C[C@@H](O)CN1C#N)c1ccc(C(C)(C)C)cc1 (single isomer, unassigned) [647 Isomer 1]	> 5.70
CO[C@@H]1C[C@H](C(=O)N(c2ccc(S(F)(F)(F)(F)F)cc2)C(C(=O)NC2CCC(F)(F)CC2)c2cnccc2C)N(C#N)C1 (single isomer, unassigned) [1199 Isomer 2]	> 5.70
CO[C@@H]1C[C@H](C(=O)N(c2ccc(S(F)(F)(F)(F)F)cc2)C(C(=O)NCC(C)(C)OC)c2cccnc2)N(C#N)C1 (single isomer, unassigned) [1194 Isomer 1]	> 5.70

Please state pIC50 for every compound in the list that follows.
1. CC(C)(C)c1ccc(N(C(=O)c2nsnc2Cl)C(C(=O)NC2CCCCC2)c2cccnc2)cc1 (centres unmarked) [Compound 123]
2. CC(C)(C#N)C(=O)N(c1ccc(S(F)(F)(F)(F)F)cc1)C(C(=O)NC1CCC(F)(F)CC1)c1cncc(F)c1 (single isomer, unassigned) [Compound 1316 Isomer 1]

Reply |
1. > 5.70
2. < 4.52

----------
Could you please report measured pIC50 for the items listed next?
- TARGET: COVID-19 (nCoV-2019, SARS-CoV2) Mpro (Severe acute respiratory syndrome coronavirus 2)
- EXPERIMENT DESCRIPTION: COVID-19 (nCoV-2019, SARS-CoV2) Mpro enzymatic assay
- Type: biochemical
- RUN PARAMETERS: 25 nM Mpro, 25 μM substrate; read-out: COVID-19 Mpro IC50
pIC50: −log10 of the molar value.

Answered cases to consult:
COMPOUND	OBSERVED MEASUREMENT
N#CN1CC(F)(F)C[C@@H]1C(=O)N(c1ccc(S(F)(F)(F)(F)F)cc1)C(C(=O)NC1CCC(F)(F)CC1)c1cccnc1 (single isomer, unassigned) [1087 Isomer 1]	> 5.70
CC(C)(C)c1ccc(C(C(=O)c2cnc[nH]2)C(C(=O)NC2CCCCC2)c2nccnc2C#N)cc1 (centres unmarked) [Compound 105]	< 4.52
C[C@H](NC(=O)C(c1cnccn1)N(C(=O)c1ccco1)c1ccc(-c2ccccc2)cc1)c1ccccc1 (single isomer, unassigned) [1355 Isomer 2]	> 5.70
CC(C)(C)c1ccc(N(C(=O)[C@H]2C[C@@H](O)CN2C#N)C(C(=O)NC2CCCC2)c2cccnc2)cc1 (single isomer, unassigned) [595 Isomer 1]	5.00 to 5.70
CC(C)(C)c1ccc(N(C(=O)[C@H]2[C@H](F)CCN2C#N)C(C(=O)NC2CCC(F)(F)CC2)c2cncc(F)c2)cc1 (single isomer, unassigned) [1212 Isomer 2]	> 5.70
CN1CC(C(=O)N(c2ccc(S(F)(F)(F)(F)F)cc2)C(C(=O)NC2CCC(F)(F)CC2)c2cncc(F)c2)N(C#N)CC1=O (single isomer, unassigned) [Compound 1161 Isomer 4]	5.00 to 5.70
CC(C)(C)c1ccc(N(C(=O)c2cnc[nH]2)C(C(=O)NC2CCCCC2)c2cncnc2C#N)cc1 (centres unmarked) [Compound 103]	4.52 to 5.00
CN1CC(C(=O)N(c2ccc(S(F)(F)(F)(F)F)cc2)C(C(=O)NC2CCC(F)(F)CC2)c2cncc(F)c2)N(C#N)CC1=O (single isomer, unassigned) [Compound 1161 Isomer 2]	5.00 to 5.70

Answer for every listed entry: what is its pIC50? The entries follow.
1. CC(C)(C)c1ccc(N(C(=O)[C@H]2Cc3ccccc3CN2C#N)C(C(=O)NC2CCCCC2)c2cccnc2)cc1 (single isomer, unassigned) [Compound 374 Isomer 2]
2. CC(C)(C)c1ccc(N(C(=O)c2cnc[nH]2)C(C(=O)NC2CCCCC2)c2cccnc2Br)cc1 (centres unmarked) [Compound 100a]
3. CC(C)(C)c1ccc(N(C(=O)[C@H]2C[C@@H](O)CN2C#N)C(C(=O)NC2CCOCC2)c2cccnc2)cc1 (single isomer, unassigned) [619 Isomer 1]

Reply |
1: > 5.70; 2: < 4.52; 3: > 5.70
